Items are presented alongside their recorded EC50.
test system: U2OS_Bim cells; experiment: Apoptosis inhibition assay (Bim-induced apoptosis, cell viability by ATP level); format: cell-based; conditions: U2OS_Bim cells; means of duplicates; numbering of Tables 4a/4b; read-out: EC50

Sample answers from the record:
get_value(item= COc1ccc(Cn2cc(-c3cc(C(F)(F)F)nc([S+](C)[O-])n3)ccc2=O)cc1OC (centres unmarked) , readout=EC50) returns 1 to 1000 nM

Kindly note the recorded EC50 for COc1ccc(Cn2cc(-c3cc(-c4ccccc4F)nc(S(C)(=O)=O)n3)ccc2=O)cc1OC , which is 1000 to 10000 nM

compound [O-][S+](CCC(OCc1ccccc1)c1ccccc1)c1nc(-c2cccs2)cc(C(F)(F)F)n1 (centres unmarked) , EC50 observed: 1000 to 10000 nM

Value of EC50 reported for the compound COc1ccc(Cn2ccc(-c3cc(C(F)(F)F)nc(S(C)(=O)=O)n3)c2)cc1 is < 100000 nM

Query CS(=O)(=O)c1nc(-c2ccc(=O)n(Cc3ccc(C#N)cc3)c2)cc(C(F)(F)F)n1 yields EC50 of 1000 to 10000 nM

Value of EC50 reported for the compound Cc1ccccc1-c1cc(C(F)(F)F)nc(S(C)(=O)=O)n1 is 1000 to 20000 nM

***
Sure, the documented EC50 for CS(=O)(=O)c1nc(-c2ccc(=O)n(Cc3ccc(Cl)cc3F)c2)cc(C(F)(F)F)n1 is 1 to 1000 nM

Documented EC50 of COC(=O)c1ccc(-c2cc(C(F)(F)F)nc([S+](C)[O-])n2)cc1 (centres unmarked) : < 100000 nM

---

system: U2OS_Bim cells; assay: Apoptosis inhibition assay (Bim-induced apoptosis, cell viability by ATP level); type: cell-based
test readout: EC50

Sure, the documented EC50 for CS(=O)(=O)c1nc(-c2ccc(=O)n(Cc3ccccc3)c2)cc(C(F)(F)F)n1 is 1 to 10 µM

Okay, now this compound:
What the record says about CS(=O)(=O)c1nc(-c2cccc(OCc3ccccc3)c2)cc(C(F)(F)F)n1 : EC50 is 1 to 20 µM

---

test system: U2OS_Bim cells; assay: Apoptosis inhibition assay (Bim-induced apoptosis, cell viability by ATP level); format: cell-based; conditions: U2OS_Bim cells; means of duplicates; numbering of Tables 4a/4b; read-out: EC50
pEC50: −log10 of the molar value.
Here the recorded pEC50 is given for each entry.

Noted for O=S(=O)(CCC(OCc1ccccc1)c1ccccc1)c1nc(-c2cccs2)cc(C(F)(F)F)n1 (stereo not shown) : its pEC50 reads 5.00 to 6.00

Further cases:
// COc1ccc(Cn2cc(-c3cc(C)nc([S+]([O-])CCC(OCc4ccccc4)c4ccccc4)n3)ccc2=O)cc1OC (stereo not shown) : pEC50 value = 6.00 to 9.00

Documented pEC50 of CS(=O)(=O)c1nc(-c2ccc(=O)n(Cc3cccc(O)c3)c2)cc(C(F)(F)F)n1 : 5.00 to 6.00

Sure, the documented pEC50 for COc1ccc(Cn2cc(-c3cc(C(F)F)nc(S(=O)(=O)CCCNC(C)=O)n3)ccc2=O)cc1OC is 5.00 to 6.00

// field: pEC50; key: C=CS(=O)(=O)c1nc(-c2ccc(=O)n(Cc3ccc(OC)c(OC)c3)c2)cc(C(F)(F)F)n1 ; value = 5.00 to 6.00

Recorded pEC50 (compound CS(=O)(=O)c1nc(CF)cc(-c2cc(F)c(=O)n(Cc3ccc4c(c3)OCO4)c2)n1 ): 5.00 to 6.00

Value of pEC50 reported for the compound COc1cccc(Cn2ccc(-c3cc(C(F)(F)F)nc(S(C)(=O)=O)n3)c2)c1 is > 4.00

---

test system: U2OS_Bim cells; test: Apoptosis inhibition assay (Bim-induced apoptosis, cell viability by ATP level); format: cell-based; conditions: U2OS_Bim cells; means of duplicates; numbering of Tables 4a/4b; read-out: EC50
pEC50: −log10 of the molar value.
Listed next: entries and their corresponding pEC50.

Please fill in: pEC50 reported for Cc1cc(-c2cc(F)c(=O)n(CC3CCOCC3)c2)nc(S(=O)(=O)CCC(OCc2ccc(F)cc2F)c2ccccc2)n1 (stereo not shown) [Compound 314] = 6.00 to 9.00

Entry COc1ccc(Cn2cc(-c3cc(C(F)(F)F)nc(S(=O)(=O)CCCC(=O)NC45CC6CC(CC(C6)C4)C5)n3)ccc2=O)cc1OC [Compound 289] — recorded pEC50 = 6.00 to 9.00

Sure, the documented pEC50 for Cc1cc(-c2cc(F)c(=O)n(CC3CCNCC3)c2)nc(S(=O)(=O)CCC(OCc2ccc(F)cc2F)c2ccccc2)n1 (stereo not shown) [Compound 312] is > 4.00

New cases:
C[S+]([O-])c1nc(-c2ccc(=O)n(Cc3ccc(OC(F)(F)F)cc3)c2)cc(C(F)(F)F)n1 (stereo not shown) [Compound 116] has a reported pEC50 of 5.00 to 6.00

---

tested on: U2OS_Bim cells; assay: Apoptosis inhibition assay (Bim-induced apoptosis, cell viability by ATP level); type: cell-based; conditions: U2OS_Bim cells; means of duplicates; numbering of Tables 4a/4b; read-out: EC50
pEC50: −log10 of the molar value.
test readout: pEC50

The compound COC(=O)c1ccc(-c2cc(C(F)(F)F)nc(S(C)(=O)=O)n2)cc1 on U2OS_Bim cells: pEC50 was > 4.00

Kindly note: U2OS_Bim cells, COCCS(=O)(=O)c1nc(-c2ccc(=O)n(Cc3ccc(OC)c(OC)c3)c2)cc(C(F)(F)F)n1 , pEC50 value reported: 6.00 to 9.00

Consider now this further compound.
Lab entry: U2OS_Bim cells assay, compound COc1ccc(Cn2ccc(-c3cc(C(F)(F)F)nc([S+](C)[O-])n3)c2)cc1 (stereo not drawn) , pEC50 = > 4.00

---

test system: U2OS_Bim cells; test: Apoptosis inhibition assay (Bim-induced apoptosis, cell viability by ATP level); type: cell-based; conditions: U2OS_Bim cells; means of duplicates; numbering of Tables 4a/4b; read-out: EC50
pEC50: −log10 of the molar value.
test readout: pEC50

Item: CCOc1cccc(Cn2cc(-c3cc(C(F)(F)F)nc(S(C)(=O)=O)n3)ccc2=O)c1 [Compound 112] | pEC50: 6.00 to 9.00

pEC50 in this record for Cc1cc(-c2cc(F)c(=O)n(CC3CCCCC3)c2)nc([S+]([O-])CCC(OCc2ccc(F)cc2F)c2ccccc2)n1 (centres unmarked) [Compound 308] : > 4.00

Kindly note the recorded pEC50 for Cc1cc(-c2cc(F)c(=O)n(Cc3ccc4c(c3)OCCO4)c2)nc(S(=O)(=O)CCC(OCc2ccccc2F)c2ccccc2)n1 (centres unmarked) [Compound 331] , which is 6.00 to 9.00

Sample COc1ccc(Cn2cc(-c3cc(C(F)(F)F)nc(S(=O)(=O)CCC(=O)N(C)C)n3)ccc2=O)cc1OC [Compound 149] ; pEC50 observed: 6.00 to 9.00

The molecule Cc1cc(-c2cc(F)c(=O)n(Cc3ccc(Cl)c(Cl)c3)c2)nc([S+]([O-])CCC(OCc2ccc(F)cc2F)c2ccccc2)n1 (centres unmarked) [Compound 315] showed pEC50 equal to > 4.00

Continuing:
// CS(=O)(=O)c1nc(-c2cccc(Oc3ccccc3)c2)cc(C(F)(F)F)n1 [Compound 73] : pEC50 value = 5.00 to 6.00

---

test system: U2OS_Bim cells; experiment: Apoptosis inhibition assay (Bim-induced apoptosis, cell viability by ATP level); type: cell-based; conditions: U2OS_Bim cells; means of duplicates; numbering of Tables 4a/4b; read-out: EC50
pEC50: −log10 of the molar value.
test readout: pEC50

Reported pEC50 of COc1ccc(Cn2cc(-c3cc(C(F)(F)F)nc(S(=O)(=O)CCCC(N)=O)n3)ccc2=O)cc1OC [Compound 158] : > 4.00

Noted for CS(=O)(=O)c1nc(-c2cccs2)cc(N2CCCC2=O)n1 [Compound 38] : its pEC50 reads > 4.00

The molecule Cc1ccc(O)c(NC(=O)CCCS(=O)(=O)c2nc(-c3cccs3)cc(C(F)(F)F)n2)c1 [Hit] showed pEC50 equal to 5.00 to 6.00

Value of measured pEC50 for the entry COc1ccc(Cn2cc(-c3cc(C(F)F)nc(S(C)(=O)=O)n3)ccc2=O)cc1F [Compound 167] : 6.00 to 9.00

Looking up COc1ccc(Cn2cc(-c3cc(C(F)(F)F)nc(S(=O)(=O)CCCC(=O)N(C)C)n3)ccc2=O)cc1OC [Compound 151] , I see its pEC50 listed as 6.00 to 9.00

Next:
What the record says about COc1ccc(Cn2cccc2-c2cc(C(F)(F)F)nc([S+](C)[O-])n2)cc1OC (stereo not drawn) [Compound 86] : pEC50 is > 4.00

Documented pEC50 of Cc1cc(-c2cc(F)c(=O)n(CC3CCOCC3)c2)nc([S+]([O-])CCC(OCc2ccc(F)cc2F)c2ccccc2)n1 (stereo not drawn) [Compound 313] : 5.00 to 6.00

Note to self: pEC50 recorded for COc1ccc(Cn2cc(-c3cc(C)nc(S(=O)(=O)CCC(OCc4ccccc4)c4ccccc4)n3)ccc2=O)cc1OC (stereo not drawn) [Compound 295] was 6.00 to 9.00

Given item COc1ccc(Cn2cc(-c3cc(C(F)F)nc(S(=O)(=O)CCCC(=O)NC45CC6CC(CC(C6)C4)C5)n3)ccc2=O)cc1OC [Compound 288] , the value recorded as its pEC50 is 6.00 to 9.00
